# System: PC-3
# test protocol: Cytotoxicity against human PC3 cells at 50 uM after 48 hrs by SRB assay
# Format: functional
# reported conditions: PC-3, 48 h
Outcome label depends on inhibition at 50 µM relative to 70%: at/above gives yes, below gives no.

Is the recorded value of inhibition at 50 µM equal to or greater than 70% for this compound? Nc1nccc(-c2ccnc3ccccc23)n1 yes

Is the recorded value of inhibition at 50 µM equal to or greater than 70% for this compound? FC(F)(F)c1ccc(Nc2nccc(-c3ccnc4ccccc34)n2)cc1 yes

Is the recorded value of inhibition at 50 µM equal to or greater than 70% for this compound? Nc1nccc(-c2cnc3ccccc3c2)n1 no

Is the recorded value of inhibition at 50 µM equal to or greater than 70% for this compound? Nc1nccc(-c2c(C(F)(F)F)nc3ccccn23)n1 yes

Is the recorded value of inhibition at 50 µM equal to or greater than 70% for this compound? FC(F)(F)c1ccc(Nc2nccc(-c3cnc4ccccc4c3)n2)cc1 no

Is the recorded value of inhibition at 50 µM equal to or greater than 70% for this compound? Cc1ccc(Nc2nccc(-c3cnc4ccccc4c3)n2)cc1 no

Is the recorded value of inhibition at 50 µM equal to or greater than 70% for this compound? Cc1nc2ccccn2c1-c1ccnc(Nc2ccc(C(F)(F)F)cc2)n1 no

Is the recorded value of inhibition at 50 µM equal to or greater than 70% for this compound? O=c1[nH]cc(F)c(=O)[nH]1 [FLUOROURACIL] no

Is the recorded value of inhibition at 50 µM equal to or greater than 70% for this compound? Cc1ccc(Nc2nccc(-c3ccnc4ccccc34)n2)cc1 yes

Is the recorded value of inhibition at 50 µM equal to or greater than 70% for this compound? FC(F)(F)c1ccc(Nc2nccc(-c3c(C(F)(F)F)nc4ccccn34)n2)cc1 yes

Is the recorded value of inhibition at 50 µM equal to or greater than 70% for this compound? Cc1ccc(Nc2nccc(-c3c(C)nc4ccccn34)n2)cc1 yes

Is the recorded value of inhibition at 50 µM equal to or greater than 70% for this compound? Cc1nc2ccccn2c1-c1ccnc(Nc2ccc(C=O)s2)n1 no

Is the recorded value of inhibition at 50 µM equal to or greater than 70% for this compound? Cc1ccc(Nc2nccc(-c3c(C(F)(F)F)nc4ccccn34)n2)cc1 yes
